# procedure-text: Ratio of drug level from brain to plasma in FV/B mouse at 2 mg/kg, sc after 1 hr
measure: Kp at 1 h
One number for each entry.

-- ask Returns the measured Kp at 1 h for the input compound. Input: `Cc1cccc(C(=O)N[C@H]2C[C@@H](n3cnc(NC(=O)Cc4cccc5ccccc45)c3)C2)n1`
-- reply 0.12

---

# procedure-text: Apparent permeability from apical to basolateral side in human Caco-2 cells
Give measured Papp A→B for each item. Keep answers brief.
Numbers only, in ×10⁻⁶ cm/s.

smiles-structure | display-unit | Papp A→B
O=C(Cc1cccc2ccccc12)Nc1cn([C@H]2C[C@@H](NC(=O)c3ccccn3)C2)cn1 | ×10⁻⁶ cm/s | 26

Please find the next molecule below.
-- ask Return reported Papp A→B; argument: `CC(=O)N[C@H]1C[C@@H](n2cnc(NC(=O)Cc3cccc4ccccc34)c2)C1`
-- reply 1.5
